Task for the reader: assign each of the following binders its reported % Max Blocking.
# target or system: T1, hRET.mmh (human, UniProt P07949 29-635, biotinylated in the ELISA of Example 4 (biot-hRET.mmh); not in the SPR of Example 3)
# T1 construct: also called biot-hRET.mmh; soluble monomeric human RET
# assay overview: competition sandwich ELISA: 1 nM biot-hRET.mmh + antibody, plate-coated GDNF/GFRα1 co-complex
Numbers only, in %.

| binder | metric name | value unit | endpoint value |
| --- | --- | --- | --- |
| H4H8062P (antibody, human IgG4, V domains shown, human IgG4 Fc (H4H prefix)) VH: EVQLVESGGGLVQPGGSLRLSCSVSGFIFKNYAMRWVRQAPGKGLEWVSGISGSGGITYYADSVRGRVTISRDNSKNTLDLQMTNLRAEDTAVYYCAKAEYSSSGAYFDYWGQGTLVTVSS VL: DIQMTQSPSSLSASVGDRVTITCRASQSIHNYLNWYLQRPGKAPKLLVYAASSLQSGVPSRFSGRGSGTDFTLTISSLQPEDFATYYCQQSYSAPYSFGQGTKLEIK | % Max Blocking | % | 97 |
| H4H8076P (antibody, human IgG4, V domains shown, human IgG4 Fc (H4H prefix)) VH: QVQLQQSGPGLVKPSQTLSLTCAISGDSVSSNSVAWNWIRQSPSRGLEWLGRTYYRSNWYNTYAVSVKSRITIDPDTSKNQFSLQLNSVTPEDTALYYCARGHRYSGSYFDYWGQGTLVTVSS VL: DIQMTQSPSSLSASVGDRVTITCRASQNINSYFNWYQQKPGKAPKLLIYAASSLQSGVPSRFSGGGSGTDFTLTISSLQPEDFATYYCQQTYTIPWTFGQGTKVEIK | % Max Blocking | % | 95 |

Here is the next item to consider.
Reported % Max Blocking, binder H4H8084P (antibody, human IgG4, V domains shown, human IgG4 Fc (H4H prefix)) VH: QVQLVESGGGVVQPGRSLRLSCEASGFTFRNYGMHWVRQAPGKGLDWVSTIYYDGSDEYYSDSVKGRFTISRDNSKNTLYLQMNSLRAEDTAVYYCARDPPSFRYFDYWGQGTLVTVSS VL: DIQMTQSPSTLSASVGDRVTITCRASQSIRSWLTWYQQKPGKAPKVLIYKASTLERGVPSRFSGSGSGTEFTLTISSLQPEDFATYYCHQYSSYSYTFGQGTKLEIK : ____ 96
